target: human TLR7 (Homo sapiens (Human)); assay: TLR7 inhibition reporter assay (HEK-Blue SEAP reporter, gardiquimod stimulation); type: cell-based; conditions: HEK-Blue cells overexpressing human TLR7, gardiquimod 7.5 μM
Sequence (Q9NYK1 27-1049): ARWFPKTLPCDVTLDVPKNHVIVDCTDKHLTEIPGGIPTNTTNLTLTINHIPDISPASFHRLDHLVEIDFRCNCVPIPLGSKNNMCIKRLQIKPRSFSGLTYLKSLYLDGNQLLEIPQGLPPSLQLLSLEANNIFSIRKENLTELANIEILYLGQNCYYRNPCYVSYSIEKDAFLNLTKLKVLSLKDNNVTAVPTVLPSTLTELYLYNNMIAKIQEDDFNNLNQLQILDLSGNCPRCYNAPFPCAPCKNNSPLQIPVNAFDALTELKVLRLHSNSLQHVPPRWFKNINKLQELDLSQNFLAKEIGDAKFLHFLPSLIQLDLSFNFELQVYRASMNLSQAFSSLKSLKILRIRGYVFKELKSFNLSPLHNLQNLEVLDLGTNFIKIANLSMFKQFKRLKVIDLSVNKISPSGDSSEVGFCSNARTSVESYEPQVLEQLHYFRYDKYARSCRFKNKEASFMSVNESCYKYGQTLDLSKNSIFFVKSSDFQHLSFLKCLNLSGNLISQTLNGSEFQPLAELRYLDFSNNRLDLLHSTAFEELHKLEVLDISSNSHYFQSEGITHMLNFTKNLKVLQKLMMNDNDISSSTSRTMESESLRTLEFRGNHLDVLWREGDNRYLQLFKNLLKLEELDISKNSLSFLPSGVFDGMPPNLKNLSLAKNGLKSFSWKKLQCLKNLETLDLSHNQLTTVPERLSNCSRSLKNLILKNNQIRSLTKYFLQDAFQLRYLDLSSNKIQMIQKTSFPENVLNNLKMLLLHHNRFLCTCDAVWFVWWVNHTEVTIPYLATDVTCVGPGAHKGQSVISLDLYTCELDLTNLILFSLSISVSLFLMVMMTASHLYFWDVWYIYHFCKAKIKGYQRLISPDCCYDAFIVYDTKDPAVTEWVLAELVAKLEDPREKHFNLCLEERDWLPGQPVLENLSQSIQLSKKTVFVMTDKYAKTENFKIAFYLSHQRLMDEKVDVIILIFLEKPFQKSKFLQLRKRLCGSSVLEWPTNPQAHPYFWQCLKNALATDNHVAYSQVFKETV
Listing of recorded IC50 by entry.
Just the number please, in µM, no unit attached.

> print(dat)
                                    molecule  measurement.name  output.unit  quantitative.result
 1  COc1cc(-c2[nH]c3ccc(C(=O)N4CCCN(C)CC4)cc3c2C(C)C)cn2ncnc12              IC50           µM               0.0038
 2  Cc1cc(-c2[nH]c3ccc(C(C)C(=O)N[C@@H]4CCCC[C@H]4N)cc3c2C(C)C)ccn1 (stereo partly shown) [Example 216]              IC50           µM                0.131
 3  Cc1cc(-c2[nH]c3ccc(C(C)(C)C(=O)N[C@H]4CCNC4)cc3c2C(C)C)ccn1              IC50           µM                0.052
 4  COc1ccc(-c2[nH]c3ccc(C(=O)N4C[C@@H]5C[C@H]4CN5)cc3c2C(C)C)cc1OC              IC50           µM                0.043
 5  Cc1cc(-c2[nH]c3ccc(C(C)C(=O)NC4CCCC(N)C4)cc3c2C(C)C)ccn1 (stereo not shown) [Example 218]              IC50           µM                0.803
 6  CNC(=O)CN1CC2CN(C(=O)c3ccc4[nH]c(-c5ccnc(C)c5)c(C(C)C)c4c3)CC2C1 (stereo not shown)              IC50           µM                 4.05
 7  CCc1c(-c2ccnc(C)c2)[nH]c2ccc(C(=O)N3CC4CN(C(C)C)CC4C3)cc12 (stereo not shown)              IC50           µM                0.469
 8  Cc1cc(-c2[nH]c3ccc(C(C)(C)C(=O)NC[C@H]4CCNC4)cc3c2C(C)C)ccn1              IC50           µM                0.164
 9  COCCN(C)C(=O)c1ccc2[nH]c(-c3cc(C)nc(C)c3)c(C(C)C)c2c1              IC50           µM                0.051
10  Cc1cc(-c2[nH]c3ccc(C(C)(C)C(=O)NC4CN5CCC4CC5)cc3c2C(C)C)ccn1 (stereo not shown)              IC50           µM                0.016

# get_value(readout='IC50', item= "CCc1c(-c2ccc(OC)c(OC)c2)[nH]c2ccc(C(=O)NCc3ccco3)cc12" )
2.5

Repeat for the following molecule: "CCc1c(-c2ccc(OC)c(OC)c2)[nH]c2ccc(C(=O)Nc3cnn(C4COC4)c3)cc12"
0.764

Repeat for the following molecule: Cc1cc(-c2[nH]c3ccc(C(=O)N4CC5CN(C(C)C)CC5C4)cc3c2C(C)C)cc(C)n1 (stereo not shown)
0.049

Value source: patent US11420973B2
